Molecular target: Adenosine receptor A3 (Homo sapiens)
Assay: Displacement of [3H]PSB-11 from human adenosine A3 receptor expressed in CHO cell membrane at 1 uM preincubated for 4 hrs followed by [3H]PSB-11 addition and measured after 0.5 hrs by radioligand displacement assay
Format: cell membranes
Conditions: time 4.5 hrs
# maps each entry to its Activity
A number alone suffices; assume %.

[[record]]
molecular_string = "CCCn1c(=O)[nH]c2nc(-c3ccc(OS(=O)(=O)F)cc3)[nH]c2c1=O"
measure = "Activity"
reported_value = 8

[[record]]
molecular_string = "CCCn1c(=O)c2[nH]c(-c3ccc(S(=O)(=O)F)cc3)nc2n(CCC)c1=O"
measure = "Activity"
reported_value = 5

[[record]]
molecular_string = "CCCn1c(=O)c2[nH]c(-c3ccc(OS(=O)(=O)F)cc3)nc2n(CCC)c1=O"
measure = "Activity"
reported_value = 49

[[record]]
molecular_string = "CCCn1c(=O)[nH]c2nc(-c3cccc(OS(=O)(=O)F)c3)[nH]c2c1=O"
measure = "Activity"
reported_value = 5

[[record]]
molecular_string = "CCCn1c(=O)[nH]c2nc(-c3ccc(S(=O)(=O)F)cc3)[nH]c2c1=O"
measure = "Activity"
reported_value = 9

[[record]]
molecular_string = "CCCn1c(=O)c2[nH]c(-c3ccc(N=C=S)cc3)nc2n(CCC)c1=O"
measure = "Activity"
reported_value = 96

[[record]]
molecular_string = "CCCn1c(=O)c2[nH]c(-c3cccc(N=C=S)c3)nc2n(CCC)c1=O"
measure = "Activity"
reported_value = 100

[[record]]
molecular_string = "CCCn1c(=O)[nH]c2nc(-c3cccc(S(=O)(=O)F)c3)[nH]c2c1=O"
measure = "Activity"
reported_value = 10


Task: Which Activity is listed for CCCn1c(=O)[nH]c2nc(-c3cccc(N=C=S)c3)[nH]c2c1=O ?
Output: 95

Task: And the next one, CCCn1c(=O)c2[nH]c(-c3cccc(S(=O)(=O)F)c3)nc2n(CCC)c1=O ?
Output: 43

Task: And the next one, CCCn1c(=O)[nH]c2nc(-c3ccc(N=C=S)cc3)[nH]c2c1=O ?
Output: 66

Task: And the next one, CCCn1c(=O)c2[nH]c(-c3cccc(OS(=O)(=O)F)c3)nc2n(CCC)c1=O ?
Output: 58
